Source: patent US12516056B2

target: Recombinant TYK2 (Homo sapiens, UniProt P29597); construct: purchased Carna Biosciences; assay: JAK biochemical assay (LANCE Ultra TR-FRET), TYK2; settings: recombinant TYK2, TR-FRET; read-out: Biochemical Assay (μM) TYK2
Sequence (P29597 whole entry): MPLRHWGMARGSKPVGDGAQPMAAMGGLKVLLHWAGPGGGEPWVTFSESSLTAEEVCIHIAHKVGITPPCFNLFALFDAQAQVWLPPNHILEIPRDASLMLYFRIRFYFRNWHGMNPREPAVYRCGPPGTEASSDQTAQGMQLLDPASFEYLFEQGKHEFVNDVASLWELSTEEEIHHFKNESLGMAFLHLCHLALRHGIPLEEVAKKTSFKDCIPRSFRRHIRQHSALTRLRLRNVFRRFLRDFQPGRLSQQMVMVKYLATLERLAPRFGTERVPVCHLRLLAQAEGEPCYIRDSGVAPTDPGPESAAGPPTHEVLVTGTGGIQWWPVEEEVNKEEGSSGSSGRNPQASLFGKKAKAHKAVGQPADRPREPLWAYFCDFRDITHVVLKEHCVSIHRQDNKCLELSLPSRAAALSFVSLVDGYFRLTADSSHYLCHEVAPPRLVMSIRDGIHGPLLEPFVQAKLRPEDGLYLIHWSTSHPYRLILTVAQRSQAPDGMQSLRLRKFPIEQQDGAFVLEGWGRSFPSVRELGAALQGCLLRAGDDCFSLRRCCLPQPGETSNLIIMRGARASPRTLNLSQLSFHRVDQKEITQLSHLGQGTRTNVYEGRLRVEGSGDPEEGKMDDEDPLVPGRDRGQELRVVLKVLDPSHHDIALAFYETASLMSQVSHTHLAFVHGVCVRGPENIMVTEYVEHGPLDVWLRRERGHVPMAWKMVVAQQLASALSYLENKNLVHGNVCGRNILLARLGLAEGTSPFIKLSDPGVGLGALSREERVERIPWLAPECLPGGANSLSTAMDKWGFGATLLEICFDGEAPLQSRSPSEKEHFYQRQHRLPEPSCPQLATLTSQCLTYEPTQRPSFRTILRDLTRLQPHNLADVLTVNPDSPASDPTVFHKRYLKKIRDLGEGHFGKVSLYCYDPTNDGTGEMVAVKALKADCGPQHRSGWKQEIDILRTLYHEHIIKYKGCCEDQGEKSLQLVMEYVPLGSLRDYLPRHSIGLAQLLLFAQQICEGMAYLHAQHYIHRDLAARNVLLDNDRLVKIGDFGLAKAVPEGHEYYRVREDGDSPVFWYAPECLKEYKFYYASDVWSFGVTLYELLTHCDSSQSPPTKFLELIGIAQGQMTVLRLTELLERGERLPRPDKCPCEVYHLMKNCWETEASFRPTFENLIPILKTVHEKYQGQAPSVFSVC
test-readout: IC50

Examples with their reported IC50 follow.
> print(dat)
                                   molecule  endpoint.result
1  OC(c1ccc(-n2cc(-c3ccnc4[nH]cnc34)cn2)nc1)C1CC1 (centres unmarked) [Example 1159]           > 1 µM
2  CS(=O)(=O)N1CCC(C(O)c2ccc(-n3cc(-c4ccnc5[nH]cnc45)cn3)nc2)CC1 (centres unmarked) [Example 1164]           > 1 µM
3  CC1CN(C(=O)n2cc(-c3ccnc4[nH]cnc34)cn2)CC1C#N (centres unmarked) [Example 1074]           > 1 µM
4  CS(=O)(=O)CCC(F)c1ccc(-n2cc(-c3ccnc4[nH]cnc34)cn2)nc1 (centres unmarked) [Example 1162]           > 1 µM
5  N#CC(NC(=O)n1cc(-c2ccnc3[nH]c(=O)[nH]c23)cn1)c1ccccc1 (centres unmarked) [Example 1063]         < 0.5 µM

Lookup: Bench note: what IC50 did O=C(NCC1CCCC1)n1cc(-c2ccnc3[nH]c(=O)[nH]c23)cn1 [Example 1034] show?
Found: > 10 µM

Lookup: Bench note: what IC50 did O=C(CN1CCN(c2ccnc3[nH]c(=O)[nH]c23)CC1)NCC(F)(F)F [Example 1025] show?
Found: > 10 µM

###

Target: Recombinant JAK3 (Homo sapiens)
Construct: purchased Carna Biosciences
Sequence (P52333 whole entry): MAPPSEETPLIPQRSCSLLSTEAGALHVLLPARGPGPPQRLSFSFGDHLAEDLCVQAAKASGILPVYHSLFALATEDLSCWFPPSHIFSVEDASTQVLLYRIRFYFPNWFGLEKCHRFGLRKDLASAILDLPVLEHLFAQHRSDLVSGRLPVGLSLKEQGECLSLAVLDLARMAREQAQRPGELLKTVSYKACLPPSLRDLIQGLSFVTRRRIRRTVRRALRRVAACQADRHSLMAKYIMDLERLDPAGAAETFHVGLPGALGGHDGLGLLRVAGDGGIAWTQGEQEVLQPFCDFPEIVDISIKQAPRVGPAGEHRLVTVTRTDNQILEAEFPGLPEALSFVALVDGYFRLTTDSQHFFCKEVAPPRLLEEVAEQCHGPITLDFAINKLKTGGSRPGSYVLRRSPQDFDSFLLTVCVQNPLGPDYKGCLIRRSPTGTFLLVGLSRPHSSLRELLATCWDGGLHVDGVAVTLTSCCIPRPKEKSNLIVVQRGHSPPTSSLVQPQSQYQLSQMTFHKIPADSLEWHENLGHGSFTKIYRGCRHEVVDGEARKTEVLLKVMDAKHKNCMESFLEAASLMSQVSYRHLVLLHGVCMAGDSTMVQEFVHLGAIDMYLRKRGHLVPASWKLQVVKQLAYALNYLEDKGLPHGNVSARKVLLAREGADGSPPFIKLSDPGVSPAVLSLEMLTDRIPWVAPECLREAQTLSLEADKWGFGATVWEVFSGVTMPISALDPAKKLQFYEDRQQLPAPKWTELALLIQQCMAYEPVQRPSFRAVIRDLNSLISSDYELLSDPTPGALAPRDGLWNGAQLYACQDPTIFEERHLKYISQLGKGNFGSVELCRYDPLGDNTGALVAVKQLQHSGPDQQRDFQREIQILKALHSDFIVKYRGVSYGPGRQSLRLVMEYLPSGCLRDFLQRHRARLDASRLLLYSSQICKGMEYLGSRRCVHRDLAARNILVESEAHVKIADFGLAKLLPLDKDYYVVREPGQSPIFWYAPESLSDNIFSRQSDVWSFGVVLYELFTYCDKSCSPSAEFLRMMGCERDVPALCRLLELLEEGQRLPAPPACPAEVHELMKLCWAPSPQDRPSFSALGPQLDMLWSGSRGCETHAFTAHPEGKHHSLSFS
Assay: JAK biochemical assay (LANCE Ultra TR-FRET), JAK3
Conditions: recombinant JAK3, TR-FRET; read-out: Biochemical Assay (μM) JAK3
Procedure: Recombinant JAK1, JAK2, JAK3 and TYK2 (Carna Biosciences) were used to develop biochemical assays in 50 mM HEPES pH 7.5, 1 mM EGTA, 10 mM MgCl2, 2 mM DTT and 0.01% Tween-20. […] The intensity of the light emission is proportional to the level of ULight substrate phosphorylation. Compounds which interfere with JAK enzyme activity show a lesser substrate phosphorylation and values are projected in terms of % inhibition in comparison to vehicle control.
Structures can show the parent of a compound that is named as a salt.
test-readout: IC50

Examples with their reported IC50 follow.
> print(dat)
                                   compound  test.readout  endpoint.result
1  CCCS(=O)(=O)NC1CCN(C(=O)n2cc(-c3ccnc4[nH]cnc34)cn2)C1 (centres unmarked) [Example 1069]          IC50         > 0.5 µM
2  O=C(NC(C1CCCC1)C(F)(F)F)n1cc(-c2ccnc3[nH]c(=O)[nH]c23)cn1 (centres unmarked) [Example 1041]          IC50          > 10 µM
3  CC(C)NCCOC(c1ccc(-n2cc(-c3ccnc4[nH]cnc34)cn2)nc1)C(F)(F)F (centres unmarked) [Example 1241, TFA salt]          IC50         < 0.1 µM
4  CS(=O)(=O)NCCC(c1ccc(-n2cc(-c3ccnc4[nH]cnc34)cn2)nc1)C(F)(F)F (centres unmarked) [Example 1143]          IC50         < 0.1 µM

Lookup: Request: IC50, test system Recombinant JAK3 (Homo sapiens), entry CNS(=O)(=O)CCC(c1ccc(-n2cc(-c3ccnc4[nH]cnc34)cn2)nc1)C(F)(F)F (centres unmarked) [Example 1142]
Found: < 0.1 µM

Lookup: Request: IC50, test system Recombinant JAK3 (Homo sapiens), entry O=C(NCC(F)(F)F)Nc1ccc(-c2ccnc3[nH]cnc23)cc1 [Example 1010]
Found: > 0.5 µM

Lookup: Request: IC50, test system Recombinant JAK3 (Homo sapiens), entry CC(CN1CC(C#N)C1)NC(=O)n1cc(-c2ccnc3[nH]cnc23)cn1 (centres unmarked) [Example 1068]
Found: > 1 µM

Lookup: Request: IC50, test system Recombinant JAK3 (Homo sapiens), entry OC(Cc1ccc(-n2cc(-c3ccnc4[nH]cnc34)cn2)nc1)C(F)(F)F (centres unmarked) [Example 1183]
Found: > 0.1 µM
